assayedSystem: USP7 (Homo sapiens, UniProt Q93009)
Sequence (Q93009 whole entry): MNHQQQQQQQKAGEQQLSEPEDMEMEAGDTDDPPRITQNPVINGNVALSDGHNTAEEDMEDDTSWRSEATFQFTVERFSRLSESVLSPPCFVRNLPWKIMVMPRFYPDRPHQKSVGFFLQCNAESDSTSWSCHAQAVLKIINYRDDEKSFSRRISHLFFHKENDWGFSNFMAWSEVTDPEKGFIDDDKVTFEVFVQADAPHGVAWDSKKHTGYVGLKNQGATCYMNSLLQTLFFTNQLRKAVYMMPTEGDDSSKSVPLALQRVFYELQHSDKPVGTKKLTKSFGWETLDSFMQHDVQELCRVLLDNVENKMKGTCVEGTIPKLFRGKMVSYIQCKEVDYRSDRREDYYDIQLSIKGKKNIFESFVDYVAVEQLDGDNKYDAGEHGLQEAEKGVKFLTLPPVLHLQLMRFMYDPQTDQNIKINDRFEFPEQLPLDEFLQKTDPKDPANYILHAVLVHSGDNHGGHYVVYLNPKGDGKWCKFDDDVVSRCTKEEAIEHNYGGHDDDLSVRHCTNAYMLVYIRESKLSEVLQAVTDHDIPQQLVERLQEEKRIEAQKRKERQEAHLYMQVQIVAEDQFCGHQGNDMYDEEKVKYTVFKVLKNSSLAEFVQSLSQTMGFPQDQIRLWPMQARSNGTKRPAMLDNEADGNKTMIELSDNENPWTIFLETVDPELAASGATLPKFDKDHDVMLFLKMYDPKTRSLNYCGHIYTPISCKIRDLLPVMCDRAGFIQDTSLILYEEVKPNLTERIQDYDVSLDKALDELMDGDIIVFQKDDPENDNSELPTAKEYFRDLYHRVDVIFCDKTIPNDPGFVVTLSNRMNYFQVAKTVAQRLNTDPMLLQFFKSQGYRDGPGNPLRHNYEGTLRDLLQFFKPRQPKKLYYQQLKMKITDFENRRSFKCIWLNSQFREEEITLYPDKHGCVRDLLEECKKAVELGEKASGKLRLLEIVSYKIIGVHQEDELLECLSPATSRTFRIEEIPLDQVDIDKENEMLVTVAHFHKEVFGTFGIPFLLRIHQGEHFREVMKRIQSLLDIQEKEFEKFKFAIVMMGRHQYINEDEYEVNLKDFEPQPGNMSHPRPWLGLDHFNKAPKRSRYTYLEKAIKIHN
quantityMeasured: pIC50
The read-out pIC50 is expressed as -log10 of concentration in moles per litre.

Prompt: Using the record for CC(C)=CCC[C@]1(C)C=Cc2c(O)c3c(c(CC=C(C)C)c2O1)O[C@]12C(=C[C@@H]4C[C@H]1C(C)(C)O[C@@]2(C/C=C(/C)C(=O)O)C4=O)C3=O , report its pIC50.
Response: 4.77

src = paper PMC11725127
